Exercise: state measured GI50 for each of the molecules provided.
- Tested on: 786-0
- testMethodNotes: NCI tumour cell line growth inhibition, 48 h
Active and inactive are the calls of the source. Rule as the data show it: active = GI50 up to about 1.1 µM and inactive = higher.

Quick check: GI50 of C=C[C@@]1(C)CC[C@@H]2[C@@]3(C1)O[C@H]3CC1[C@](C)(C(=O)OC)CCC[C@@]12C (stereo partly drawn) ?
20.3 µM (inactive)

What does the data say about its GI50? Entry: COc1cc2c(oc(=O)c3c4occc4cc(OC)c23)c2cccc(O)c12
> 100 µM (inactive)

Would you mind telling me what GI50 value was observed for CC(=O)OCC1OC(N2C(c3ccccc3)=CC(c3cccs3)C(C#N)=C2S)C(OC(C)=O)C(OC(C)=O)C1OC(C)=O (stereo not drawn) ?
2.55 µM (inactive)

Fill blank: measured GI50 of the molecule CC(Nc1ccc(Cl)c(Cl)c1)c1ccncc1 (stereo not drawn) is ____.
29 µM (inactive)

What measured GI50 goes with Oc1c2cc(Br)cc1CCc1cc(Br)cc(c1O)CC2 ?
30.2 µM (inactive)

For the molecule shown here, COc1ccc([C@H]2CC(=O)N3CCCC3N2)cc1 (stereo partly drawn) , give the reported GI50.
> 100 µM (inactive)

Entry CC(C)(C)OC(=O)[N+](=N)C(=O)C1CCC(=O)N1C(=O)OCc1ccccc1 (stereo not drawn) has what GI50?
> 100 µM (inactive)

Request the reported GI50 associated with COC(=O)c1c(C)cccc1C1CN=NC12Cc1ccccc1C2=O (stereo not drawn)
> 100 µM (inactive)

What value of GI50 has been reported for the following molecule? COc1cc2cccc(/N=C/c3c(Br)ccc(OC)c3OC(C)C)c2cc1OC
26.5 µM (inactive)

Which GI50 reading was recorded for the molecule CNC(=O)C1CCCN1C(=O)C(Cc1c[nH]cn1)NC(=O)C1CCC(=O)N1 (stereo not drawn) ?
85.5 µM (inactive)

Given Cn1cnc([N+](=O)[O-])c1SC1=NCCS1 , state its recorded GI50.
> 100 µM (inactive)

Item under review: O=C1C(N2CCCC2)=CC(=O)c2c(O)c(N3CCCC3)c(Cl)c(O)c21 . Reported GI50?
> 10 µM (inactive)

Entry O=NN(CCCl)C(=O)N[C@H]1CC[C@@H](C(=O)O)CC1 has what GI50?
40.7 µM (inactive)

Consider the molecule COc1cc(/C=N/Nc2nnc3c4ccccc4c4ncccc4c3n2)cc(OC)c1OC and give its measured GI50.
5.83 µM (inactive)

What value of GI50 has been recorded for this entry: O=C1N(c2ccccc2)C(=O)C2(SC=NN2Cc2ccccc2)N1c1ccccc1 (stereo not drawn)
> 100 µM (inactive)

Looking for the measured GI50 of COc1ccccc1NC(=O)NS(=O)(=O)c1ccccc1 , can you help?
> 100 µM (inactive)

Entry O=C1c2ccccc2/C=C\C(c2ccccc2)=N/N1c1ccccc1Cl : reported GI50 = ?
29.2 µM (inactive)

Which GI50 is listed for COc1ccc2nc3cc(Cl)ccc3c(NCCC[N+](C)(C)CCCCCCCCCCCCCCCC[N+](C)(C)CCCNc3c4ccc(Cl)cc4nc4ccc(OC)cc34)c2c1 ?
3.63 µM (inactive)

###

- System: K562
- testMethodNotes: NCI tumour cell line growth inhibition, 48 h
Activity calls are given as the source filed them. Rule as the data show it: active = GI50 up to about 1.1 µM and inactive = higher. Peptide text beside a SMILES is read from it. * marks the point of attachment. Boc = CC(C)(C)OC(=O)*
Your response should consist of one outcome taken from YES (active), NO (inactive)

Hi, sorry to bother you, what did the test record for c1ccc(C2SCc3nc4cc5ccccc5cc4n32)cc1 (stereo not drawn) ?
NO

Per the assay record, what outcome was assigned to CCn1ncc2c1nc(-c1ccccc1)c[n+]2[O-] ?
NO

Can you look up the reported call for O=C1C(c2cnc3ccccc3n2)=C(O)c2ccccc21 for me?
NO

I would be grateful if you could indicate the recorded call for O=C(CCc1ccc(O)c(O)c1)NCCc1cc(O)c(O)c(O)c1 .
NO

Outcome logged for O=C(O)c1ccc(Nc2ccnc3cc(Cl)ccc23)cc1O in this assay:
NO

# fetch the recorded call for COc1ccc2c(c1OC)C1=C(C2=O)c2cc3c(cc2CCN1)OCO3 here
NO

Recorded test outcome, item CC(C)NC1CCCCC2c3cc(F)ccc3[C@]12O (stereo partly drawn)
NO

Which outcome did this test record for the compound COc1cc2c(cc1OC)OC(c1c(OC)ccc(OC)c1O)CC2 (stereo not drawn) ?
NO

Give the logged outcome of this assay for the following compound: S=P(c1ccccc1)(c1ccccc1)C1(C2(P(=S)(c3ccccc3)c3ccccc3)CC2)CC1
NO

Assay outcome for Cc1ccccc1NC(=O)O/N=C(\Cl)C(C)C : what was it?
NO

What is the recorded call for this compound in the test? COC(=O)C1=C(O)c2cc(OC)c(OC)cc2C(c2ccc(OC)c(OC)c2)C1 (stereo not drawn)
NO

// outcome(item) with item = Nc1nnc(N)n1NC(=O)C(=O)Nc1ccc([N+](=O)[O-])cc1
NO

Tell me the assay call for Cc1ccc2n(c1)cc(-c1ccc(/C=N/NC(=N)N/N=C/c3ccc(-c4cn5cc(C)ccc5[n+]4C)cc3)cc1)[n+]2C please.
NO

Hi team, can someone confirm the assay call for O=CC1C(Cl)=Nc2nc3ccccc3n2C1c1ccccc1 (stereo not drawn) ?
NO

Please let me know the test result on file for CSCCC(NC(=O)C(CC(C)C)NC(=O)CNC(=O)OC(C)(C)C)C(=O)N(C)C (stereo not drawn) (Boc-Gly-Leu-Met-NMe2; configuration not given here) .
NO

Recorded test call requested for NN/C(=N\S(=O)(=O)c1cc2ccccc2s1)Nc1ccc(Cl)cc1
NO

Which outcome was assigned to Cc1ccc(S(=O)(=O)c2c3nc4ccccc4nc3n3c2[nH]c2ccccc23)cc1 in this test?
NO

Could you check what this test reported for CCOC(=O)C1C(c2ccc(Cl)cc2Cl)NC(c2ccc(C)cc2)C(C(=O)OC)S1(=O)=O (stereo not drawn) ?
NO

Please state the recorded outcome for this compound: Cc1ccccc1NC(=S)N/N=C(/c1ccccc1)c1ccccn1
YES

Recorded call for NS(=O)(=O)c1ccc(NC(=O)N/N=C/c2ccccc2O)cc1 ?
NO

Hi team, can someone confirm the assay call for CC1=NN(c2nc(N)nc(COCc3nc(N)nc(N4N=C(C)CC4(C)C)n3)n2)C(C)(C)C1 ?
NO

Returns: the outcome recorded for O=C(NC(Cc1c[nH]c2ccccc12)C(=O)O)/C(=C/c1ccccc1)NC(=O)c1ccccc1 (stereo not drawn) in this assay.
NO

Would you mind telling me which call this test gave OC12CC3c4ccccc4NC3C3Oc4cccc5c4C31CCN(CC1CC1)C2C5 (stereo not drawn) ?
NO

Hi team, can someone confirm the assay call for CSc1nc2ccccc2c(=O)n1/N=C1\C(=O)N(CN2CCOCC2)c2ccc(Cl)cc21 ?
NO

Outcome logged for Cc1cc2c(=O)cc(-c3cccs3)oc2c(C(=O)O)c1C in this assay:
NO

Which outcome was assigned to CC(C)(C)c1ccc2c(c1)C#Cc1cc3c(cc1OCCCO2)C#Cc1cc(C(C)(C)C)ccc1OCCCO3 in this test?
NO

Test call, this compound: NCCCc1c(-c2ccccc2)[nH]c(N)nc1=O
NO

Please indicate how the test categorized C=C1[C@H](OC(=O)C(C)C)[C@@H](OC(C)=O)[C@@H](OC(C)=O)C(C)(C)[C@@H]2O[C@H]2[C@@H](C)C(=O)[C@@]2(OC(C)=O)C[C@@](C)(OC(C)=O)[C@H](OC(C)=O)[C@@H]2[C@H]1OC(C)=O .
NO

###

- Test system: U-251
- testMethodNotes: NCI tumour cell line growth inhibition, 48 h
Activity calls are given as the source filed them. Cut-off read from the data, not from the text of the source: active = GI50 up to about 1.1 µM and inactive = higher.
Reply using exactly one outcome from Yes for active, No for inactive

What is the recorded call for this molecule in the test? CSc1c2c(C)n[nH]c2nn1-c1ccccc1
No

Could you kindly confirm the outcome this assay logged for N=C(N)c1ccc(OCCCCCOc2ccc(C(=N)N)cc2)cc1 ?
No

What call does the record list for C[C@H](CCC(=O)NCCS(=O)(=O)O)[C@H]1CC[C@H]2[C@@H]3CC[C@@H]4C[C@H](O)CC[C@]4(C)[C@H]3CC[C@]12C ?
No

Outcome? COC(=O)c1ccc(NC(=O)O/N=C(\Cl)C(C)C)cc1
No

Would you mind telling me which call this test gave O=C1CSC(c2ccccc2O)N1c1nc2cc3sc(N4C(=O)CSC4c4ccccc4O)nc3cc2s1 (stereo not drawn) ?
No

Query: recorded result category for COc1ccc2c(c1)C1=NCCN(C)c3ccc([N+](=O)[O-])c(c31)N2 in this test
No

Which outcome was assigned to Cc1cn(C2CC(n3cncn3)C(C(C)O)O2)c(=O)[nH]c1=O (stereo not drawn) in this test?
No

Lab log entry: Cc1cc2nc(N3C(=O)/C(=C/c4ccc(N(C)C)cc4)N=C3c3ccccc3)sc2cc1C — outcome as called in the assay?
No

Dear all, I need the recorded test outcome for CCOP(=O)(/C=C\n1cnc2c(=O)n(C(C)=O)c(N)nc21)OCC , thank you.
No

Called result for COc1nc(=O)cc(N)n1C1OC(CO)C(O)C1O (stereo not drawn)
No

Field: outcome | Entry: COc1ccc(C2OC(=O)c3c2ccc2ccccc32)c(C)c1 (stereo not drawn)
No

Which result was noted for this molecule in the test: Cc1ccccc1NC(=S)N/N=C(/c1ccccc1)c1ccccn1
Yes

For this molecule, state the assay outcome: NCCCN(CCCN)CCc1cn(C(=O)c2ccccc2)cn1
No
